Where these numbers come from: ChEMBL document CHEMBL5236623

# fold change (FC) listing for each entry below
- Species: Homo sapiens
- assay_method_text: Stabilization of fluorescently-labeled human GR_pT524 peptide/human 14-3-3 zeta expressed in Escherichia coli BL21 (DE3)STAR competent cells protein-protein interaction assessed as fold increase in FP signal of 14-3-3/phosphopeptide complex at […] incubated for 1 hr by Fluorescence polarization assay relative to DMSO
Please give the numeric answer without any surrounding text.

molecule: O=C(O)c1cc(N2C(=O)C(O)=C(c3ccccc3)C2c2ccc([N+](=O)[O-])cc2)ccc1O (single isomer, unassigned; (-))
fold change (FC): 1.5
--
molecule: O=C(O)c1cc(N2C(=O)C(O)=C(c3ccccc3)C2c2ccc([N+](=O)[O-])cc2)ccc1O (racemic)
fold change (FC): 1.4
--
molecule: O=C(C1=C(O)C(=O)N(c2ccc(O)c(C(=O)O)c2)C1c1ccc([N+](=O)[O-])cc1)c1ccccc1 (stereo not drawn)
fold change (FC): 1.4
--
molecule: O=C(C1=C(O)C(=O)N(c2ccc(O)c(C(=O)O)c2)C1c1ccc2c(c1)COC2=O)c1ccccc1 (stereo not drawn)
fold change (FC): 1.2
--
molecule: O=C(O)c1cc(N2C(=O)C(O)=C(C(=O)c3ccccc3Cl)C2c2ccc([N+](=O)[O-])cc2)ccc1O (stereo not drawn)
fold change (FC): 1.2
--
molecule: O=C(C1=C(O)C(=O)N(c2ccc(O)c(C(=O)O)c2)[C@H]1c1ccc([N+](=O)[O-])cc1)c1ccccc1
fold change (FC): 1.2
--
molecule: O=C(O)c1cc(N2C(=O)C(O)=C(Cc3ccccc3)C2c2ccc([N+](=O)[O-])cc2)ccc1O (stereo not drawn)
fold change (FC): 1.3

Lab note: next molecule to report on.
Q. GET /values?readout=fold change (FC)&item= O=C(C1=C(O)C(=O)N(c2ccc(O)c(C(=O)O)c2)[C@@H]1c1ccc([N+](=O)[O-])cc1)c1ccccc1
A. 1.6
